# IC50 per entry
Target: T1, CathepsinG, from human neutrophils (human, UniProt P08311 21-244)
T1 sequence (looked up): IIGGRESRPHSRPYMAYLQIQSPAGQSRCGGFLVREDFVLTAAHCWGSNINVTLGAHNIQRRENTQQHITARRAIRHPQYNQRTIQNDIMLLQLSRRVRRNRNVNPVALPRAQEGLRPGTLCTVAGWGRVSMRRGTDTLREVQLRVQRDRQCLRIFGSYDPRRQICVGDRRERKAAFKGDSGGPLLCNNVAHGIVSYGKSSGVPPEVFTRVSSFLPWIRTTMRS
Experiment: cell-based or functional assay
Kindly provide the numeric value in nmol only, without the unit symbol.

QUERY: IC50 lookup needed for ICTKSDPPXCR (HELM PEPTIDE1{I.C.T.K.S.D.P.P.[Cha].C.R.[dP].P}$PEPTIDE1,PEPTIDE1,2:R3-10:R3|PEPTIDE1,PEPTIDE1,1:R1-13:R2$$$V2.0; SMILES CC[C@H](C)[C@@H]1NC(=O)[C@@H]2CCCN2C(=O)[C@H]2CCCN2C(=O)[C@H](CCCNC(=N)N)NC(=O)[C@@H]2CSSC[C@H](NC1=O)C(=O)N[C@@H]([C@@H](C)O)C(=O)N[C@@H](CCCCN)C(=O)N[C@@H](CO)C(=O)N[C@@H](CC(=O)O)C(=O)N1CCC[C@H]1C(=O)N1CCC[C@H]1C(=O)N[C@@H](CC1CCCCC1)C(=O)N2) [Example 20] , thanks.
RESULT: 48

Turning now to a further record.
QUERY: IC50 lookup needed for ICTKSDPPQCR (HELM PEPTIDE1{I.C.T.K.S.D.P.P.Q.C.R.[dP].P}$PEPTIDE1,PEPTIDE1,2:R3-10:R3|PEPTIDE1,PEPTIDE1,1:R1-13:R2$$$V2.0; SMILES CC[C@H](C)[C@@H]1NC(=O)[C@@H]2CCCN2C(=O)[C@H]2CCCN2C(=O)[C@H](CCCNC(=N)N)NC(=O)[C@@H]2CSSC[C@H](NC1=O)C(=O)N[C@@H]([C@@H](C)O)C(=O)N[C@@H](CCCCN)C(=O)N[C@@H](CO)C(=O)N[C@@H](CC(=O)O)C(=O)N1CCC[C@H]1C(=O)N1CCC[C@H]1C(=O)N[C@@H](CCC(N)=O)C(=O)N2) [Example 17] , thanks.
RESULT: 55

Recorded values, source patent US20140213531A1.
